Target: KRAS WT (Homo sapiens, UniProt P01116+P62937)
Sequence (P01116 1-169 isoform P01116-2 limits assumed): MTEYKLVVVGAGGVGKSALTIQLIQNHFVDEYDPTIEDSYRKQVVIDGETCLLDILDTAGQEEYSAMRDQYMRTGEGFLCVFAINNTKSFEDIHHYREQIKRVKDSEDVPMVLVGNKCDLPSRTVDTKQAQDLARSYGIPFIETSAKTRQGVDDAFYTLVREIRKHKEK
Sequence (P62937 whole entry): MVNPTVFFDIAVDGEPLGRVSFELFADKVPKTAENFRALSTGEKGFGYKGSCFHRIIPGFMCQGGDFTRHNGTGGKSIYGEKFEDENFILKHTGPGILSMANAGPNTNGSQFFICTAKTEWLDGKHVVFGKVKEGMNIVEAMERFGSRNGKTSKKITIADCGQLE
Assay: Disruption of BRAF RBD interaction with Ras (FRET / MOA assay, with Cyclophilin A)
Type: biochemical
Conditions: KRAS WT; read-out: KRAS WT FRET data IC50
METRIC NAME: IC50

Data request: Observed IC50 on KRAS WT (Homo sapiens, UniProt P01116+P62937) for CCn1c(-c2cccnc2[C@H](C)OC)c2c3cc(ccc31)-c1cc(O)cc(c1)C[C@H](NS(=O)(=O)CC1CCC3(CNC3)C1)C(=O)N1CCC[C@H](N1)C(=O)OCC(C)(C)C2 (mixture of isomers) , please.
Data returned: > 10000 nM

Data request: For KRAS WT (Homo sapiens, UniProt P01116+P62937), provide IC50 of C=CC(=O)N1CC[C@H](C(=O)N(C)[C@H](C(=O)N[C@H]2Cc3cc(O)cc(c3)-c3ccc4c(c3)c(c(-c3cccnc3N3CC(OC)C3)n4CC)CC(C)(C)COC(=O)[C@@H]3CCCN(N3)C2=O)C(C)C)C1 please.
Data returned: > 10000 nM

Data request: Please provide the recorded IC50 for CCn1c(-c2cnccc2COC)c2c3cc(ccc31)-c1cc(O)cc(c1)C[C@H](NC(=O)[C@H](C(C)C)N(C)C(=O)OC1CN(C)C1)C(=O)N1CCC[C@H](N1)C(=O)OCC(C)(C)C2 , tested on KRAS WT (Homo sapiens, UniProt P01116+P62937).
Data returned: 100 to 1000 nM

Data request: Param readout= IC50; system= KRAS WT (Homo sapiens, UniProt P01116+P62937); entry= CCn1c(-c2cnccc2COC)c2c3cc(ccc31)-c1cc(O)cc(c1)C[C@H](NC(=O)[C@H](C(C)C)N1COCC1=O)C(=O)N1CCC[C@H](N1)C(=O)OCC(C)(C)C2 ; returns value.
Data returned: 100 to 1000 nM

Data request: Test system KRAS WT (Homo sapiens, UniProt P01116+P62937); read-out IC50; what value for CCn1c(-c2cccnc2[C@H](C)OC)c2c3cc(ccc31)-c1cc(O)cc(c1)C[C@H](NC(=O)[C@H](C(C)C)N(C)C(=O)[C@H]1CCN(C(=O)CNC)C1)C(=O)N1CCC[C@H](N1)C(=O)OCC(C)(C)C2 (atropisomer, axis not shown) ?
Data returned: 100 to 1000 nM

Data request: Find the measured IC50: item C=CC(=O)N1CC[C@H](C(=O)N(C)[C@H](C(=O)N[C@H]2Cc3cc(O)cc(c3)-c3ccc4c(c3)c(c(-c3ccc(CN(C)C)cc3COC)n4CC)CC(C)(C)COC(=O)[C@@H]3CCCN(N3)C2=O)C(C)C)C1 , target or system KRAS WT (Homo sapiens, UniProt P01116+P62937).
Data returned: 1000 to 10000 nM

Data request: // map C=CC(=O)N1CC[C@H](C(=O)N(C)[C@H](C(=O)N[C@H]2Cc3cc(O)cc(c3)-c3ccc4c(c3)c(c(-c3ccc(CC(=O)O)cc3)n4CC)CC(C)(C)COC(=O)[C@@H]3CCCN(N3)C2=O)C(C)C)C1 to recorded IC50 (system: KRAS WT (Homo sapiens, UniProt P01116+P62937))
Data returned: > 10000 nM

Data request: Record lookup: for KRAS WT (Homo sapiens, UniProt P01116+P62937), what IC50 belongs to C=CC(=O)N1CC[C@H](C(=O)N(C)[C@H](C(=O)N[C@H]2Cc3cc(O)cc(c3)-c3ccc4c(c3)c(c(-c3ccccc3CCOC)n4C(C)(C)C#N)CC(C)(C)COC(=O)[C@@H]3CCCN(N3)C2=O)C(C)C)C1 ?
Data returned: 1000 to 10000 nM

Data request: Fill in the recorded IC50 for this compound, with KRAS WT (Homo sapiens, UniProt P01116+P62937) as test system: CCn1c(-c2cccnc2[C@H](C)OC)c2c3cc(ccc31)-c1cc(O)cc(c1)C[C@H](NC(=O)[C@H](C(C)C)N(C)C(=O)N1CC(N(C)C)C1)C(=O)N1CCC[C@H](N1)C(=O)OCC(C)(C)C2
Data returned: 100 to 1000 nM

---

Target: KRAS G12C (Homo sapiens, UniProt P01116+P62937, G12C)
Experiment: Disruption of BRAF RBD interaction with Ras (FRET / MOA assay, with Cyclophilin A)
Assay type: biochemical
Conditions: read-out: KRAS G12C FRET data, IC50
Sequence (P01116 1-169 isoform P01116-2 G12C, one chain of several): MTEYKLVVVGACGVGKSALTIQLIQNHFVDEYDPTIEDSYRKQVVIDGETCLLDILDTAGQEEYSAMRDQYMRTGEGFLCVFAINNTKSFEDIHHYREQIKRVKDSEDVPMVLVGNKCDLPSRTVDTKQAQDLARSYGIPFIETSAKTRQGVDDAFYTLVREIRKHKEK
pIC50: −log10 of the molar value.
METRIC NAME: pIC50

Data request: Look up pIC50: CCn1c(-c2cnccc2COC)c2c3cc(ccc31)-c1cc(O)cc(c1)C[C@H](NC(=O)[C@H](C(C)C)N(C)C(=O)[C@H]1CCN(C(=O)C3COC3)C1)C(=O)N1CCC[C@H](N1)C(=O)OCC(C)(C)C2
Data returned: 7.00 to 8.00

Data request: Endpoint output: pIC50 of CCn1c(-c2cccnc2[C@H](C)OC)c2c3cc(ccc31)-c1csc(n1)C[C@H](NC(=O)[C@H](C(C)C)N(C)C(=O)N1CC3(CC(O)C3)C1)C(=O)N1CCC[C@H](N1)C(=O)OCC(C)(C)C2 (atropisomer, axis not shown) . Value?
Data returned: 7.00 to 8.00

Data request: Need pIC50, item CCn1c(-c2cccnc2[C@H](C)OC)c2c3cc(ccc31)-c1csc(n1)C[C@H](NC(=O)[C@H](C(C)C)N(C)C(=O)N(C)C1CC1)C(=O)N1CCC[C@H](N1)C(=O)OCC(C)(C)C2
Data returned: 7.00 to 8.00

---

Target: KRAS G12C (Homo sapiens, UniProt P01116+P62937, G12C)
Experiment: Ras-Raf disruption / FRET / MOA assay (BRAF RBD)
Assay type: biochemical
Details: Ras-Raf disruption, with Cyclophilin A; read-out: KRAS G12C FRET data IC50
Sequence (P01116 1-169 isoform P01116-2 G12C limits assumed, one chain of several): as the sequence (P01116 1-169 isoform P01116-2 G12C, one chain of several) above
Can you tell me IC50 for the items I'm about to list?

Data request: What value of IC50 has been reported for the following compound? CCn1c(-c2cccnc2[C@H](C)OC)c2c3cc(ccc31)-c1cc(O)cc(c1)C[C@H](NC(=O)[C@H](C(C)C)N(C)C(=O)N(C)CCN(C)C(=O)[C@H]1CN1)C(=O)N1CCC[C@H](N1)C(=O)OCC(C)(C)C2 (atropisomer, axis not shown)
Data returned: < 10 nM

Data request: What value of IC50 has been recorded for this entry: CCn1c(-c2cccnc2[C@H](C)OC)c2c3cc(ccc31)-c1csc(n1)C[C@H](NC(=O)[C@H](C(C)C)N(C)C(=O)N1CCC[C@H](N(C)C(=O)[C@@H]3CN3)C1)C(=O)N1CCC[C@H](N1)C(=O)OCC(C)(C)C2 (atropisomer, axis not shown)
Data returned: 100 to 1000 nM

Data request: For CCn1c(-c2cccnc2[C@H](C)OC)c2c3cc(ccc31)-c1csc(n1)C[C@H](NC(=O)[C@H](C(C)C)N(C)C(=O)N1CCN(C(=O)[C@@H]3CN3)[C@@H](C)C1)C(=O)N1CCC[C@H](N1)C(=O)OCC(C)(C)C2 , what is its reported IC50?
Data returned: 10 to 100 nM

Data request: Tell me the measured IC50 of CCn1c(-c2cnccc2COC)c2c3cc(ccc31)-c1cccc(c1)C[C@H](NC(=O)[C@H](C(C)C)N(C)C(=O)CCN=C=NCc1c(OC)cccc1OC)C(=O)N1CCC[C@H](N1)C(=O)OCC(C)(C)C2 , please.
Data returned: 1000 to 10000 nM

Data request: Query: IC50; subject: CCn1c(-c2cccnc2[C@H](C)OC)c2c3cc(ccc31)-c1cc(O)cc(c1)C[C@H](NC(=O)[C@H](C(C)C)N(C)C(=O)C1CCN(C(=O)[C@H]3CN3)CC1)C(=O)N1CCC[C@H](N1)C(=O)OCC(C)(C)C2
Data returned: 10 to 100 nM

Data request: # input compound: CCn1c(-c2cccnc2[C@H](C)OC)c2c3cc(ccc31)-c1cc(O)cc(c1)C[C@H](NC(=O)[C@H](C(C)C)N(C)C(=O)c1ncc(NC(=O)[C@H]3CN3)n1C)C(=O)N1CCC[C@H](N1)C(=O)OCC(C)(C)C2 ; wanted: its IC50
Data returned: 10 to 100 nM

Data request: What measured IC50 goes with CCn1c(-c2cccnc2[C@H](C)OC)c2c3cc(ccc31)-c1cc(O)cc(c1)C[C@H](NC(=O)[C@H](C(C)C)N(C)C(=O)CN(C)S(=O)(=O)[C@H]1CN1C)C(=O)N1CCC[C@H](N1)C(=O)OCC(C)(C)C2 (single isomer, unassigned) ?
Data returned: 10 to 100 nM

Data request: Could you share which IC50 value was measured for CCn1c(-c2cccnc2[C@H](C)OC)c2c3cc(ccc31)-c1csc(n1)C[C@H](NC(=O)[C@H](C(C)C)N(C)C(=O)N1CC[C@@H](N(C)C(=O)[C@H]3CN3)C1)C(=O)N1CCC[C@H](N1)C(=O)OCC(C)(C)C2 (atropisomer, axis not shown) ?
Data returned: 100 to 1000 nM

Data request: Request the reported IC50 associated with CCn1c(-c2cccnc2[C@H](C)OC)c2c3cc(ccc31)-c1csc(n1)C[C@H](NC(=O)[C@H](C(C)C)N(C)C(=O)N1CCN(C(=O)[C@@H]3CN3)[C@H](C)C1)C(=O)N1CCC[C@H](N1)C(=O)OCC(C)(C)C2
Data returned: 100 to 1000 nM

Data request: I'd like to know its IC50. The compound in question is CCn1c(-c2cccnc2[C@H](C)OC)c2c3cc(ccc31)-c1csc(n1)C[C@H](NC(=O)[C@H](C(C)C)N(C)C(=O)N(C)C1CN(C(=O)[C@@H]3CN3)C1)C(=O)N1CCC[C@H](N1)C(=O)OCC(C)(C)C2
Data returned: 100 to 1000 nM

Data request: Endpoint output: IC50 of CCn1c(-c2cnccc2COC)c2c3cc(ccc31)-c1cccc(c1)C[C@H](NC(=O)[C@H](C(C)C)N(C)C(=O)CCN=C=NCCCN1CCOCC1)C(=O)N1CCC[C@H](N1)C(=O)OCC(C)(C)C2 . Value?
Data returned: 10 to 100 nM

Data request: # IC50 lookup, item CCn1c(-c2cccnc2[C@H](C)OC)c2c3cc(ccc31)-c1cc(O)cc(c1)C[C@H](NC(=O)[C@H](C(C)C)N(C)C(=O)[C@H]1CCCCN(C(=O)[C@H]3CN3)C1)C(=O)N1CCC[C@H](N1)C(=O)OCC(C)(C)C2 (atropisomer, axis not shown)
Data returned: 10 to 100 nM

Data request: Which IC50 is listed for CCCN=C=NCCC(=O)N(C)[C@H](C(=O)N[C@H]1Cc2cccc(c2)-c2ccc3c(c2)c(c(-c2cnccc2COC)n3CC)CC(C)(C)COC(=O)[C@@H]2CCCN(N2)C1=O)C(C)C ?
Data returned: 10 to 100 nM

Data request: Would you kindly share the measured IC50 for CCn1c(-c2cccnc2[C@H](C)OC)c2c3cc(ccc31)-c1cc(O)cc(c1)C[C@H](NC(=O)[C@H](C(C)C)N(C)C(=O)[C@H]1C[C@H](NC(=O)[C@@H]3CN3)C1)C(=O)N1CCC[C@H](N1)C(=O)OCC(C)(C)C2 ?
Data returned: < 10 nM

Data request: I have this compound here, CCn1c(-c2cccnc2[C@H](C)OC)c2c3cc(ccc31)-c1cc(O)cc(c1)C[C@H](NC(=O)[C@H](C(C)C)N(C)C(=O)[C@H]1CCN(C(=O)[C@H]3CN3)C1)C(=O)N1CCC[C@H](N1)C(=O)OCC(C)(C)C2 (single isomer, unassigned) [Example 43B] , and I need its recorded IC50.
Data returned: 10 to 100 nM

Data request: Could you share which IC50 value was measured for CCn1c(-c2cccnc2[C@H](C)OC)c2c3cc(ccc31)-c1csc(n1)C[C@H](NC(=O)[C@H](C(C)C)N(C)C(=O)N(C)[C@H]1CCN(C(=O)[C@@H]3CN3)C1)C(=O)N1CCC[C@H](N1)C(=O)OCC(C)(C)C2 (atropisomer, axis not shown) ?
Data returned: 100 to 1000 nM
